- System: ATP;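 further: ATP exposure 15 min at 22 °C before imaging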
- RUN_DESCRIPTION: switch fluorescence ratio, 500 uM ATP over buffer (Cy3 cluster intensity, sum of 5 cycles each) (fold (ratio)); higher = stronger signal-on switching upon ATP binding; sequences stand for … in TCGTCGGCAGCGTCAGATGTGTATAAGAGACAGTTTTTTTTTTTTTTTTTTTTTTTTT…TC
- CONDITION_DESCRIPTION: aptamer strand: ATP DNA aptamer (quencher-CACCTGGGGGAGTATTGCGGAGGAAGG + anchor), 100 nM annealed; ATP concentration: 500 uM
This listing pairs sequences with measured switch fluorescence ratio.
MEASURED_ENDPOINT: switch fluorescence ratio

>>> print(df.to_string())
    sequence_record  study_target  experimental_value
 0       TGGGTTGTAT           ATP               0.998
 1       AGCGGGGGCT           ATP               0.997
 2       AGTCAACTTG           ATP                1.01
 3       TAGCAATTAT           ATP                1.81
 4       TGTAGGGGTC           ATP                1.01
 5       TGAATCAACA           ATP                1.04
 6       AATAGCTACT           ATP                1.08
 7       CGGGGGCGGT           ATP               0.998
 8       CTAAAGACTC           ATP                1.19
 9       TCTCTATGTG           ATP               0.966
10       AAAGTGGGGA           ATP                1.03
11       ATTGACGTGT           ATP                   1
12       GGCTGAGCCT           ATP               0.991
13       GGCCGCAGGT           ATP               0.987
14       GCCAGATAGG           ATP               0.956
15       GGGGTGGCTG           ATP               0.955
16       TACGGCCGAG           ATP                   1
17       AAGGGTAACA           ATP               0.991
18        TTTTTTTCT           ATP                1.01
19       AGGTGAGGCA           ATP                1.05
20       AAAAGTAAAA           ATP                1.03
21       CGCTAGATTT           ATP               0.996
22       GTTTCAAGAT           ATP               0.994
23       GTTAACCCAT           ATP                1.01
24       CGCGCTGCTG           ATP                1.03
25       TGTAGGAGGA           ATP                1.01
26       GGTGAACCGT           ATP                   1
27       GGTTTTTGGG           ATP               0.994
28       AAAAGTTGTA           ATP                1.01
29       ACATTTGGGA           ATP               0.964
30       AAATTGGGAA           ATP                1.01
31       AGGGGGTGTG           ATP               0.989
32       GGTCCAGGTT           ATP                1.09
33       GATAAGGAAC           ATP               0.979
34       CGCGGTTGCG           ATP               0.967
35       TCCGTTGATA           ATP                1.17
36       CCATTACGTT           ATP                1.04
37       GGGAGGAAAG           ATP               0.991
38       GATAGTGAGA           ATP                1.03
39       GGGTTTTCTG           ATP               0.945
40       ACAGCAGTTG           ATP                1.04
41       GCGGCAGGGA           ATP               0.997
42       GCTGTGGATG           ATP                1.02
43       AACGGGGTCT           ATP               0.978
44       GGGGGTTATT           ATP               0.989
45       AAAAAAATGG           ATP                1.01
46       ACGAGGTAAG           ATP                1.08
47       GCCTTTGGCT           ATP               0.996
48       AGCGGTCTAT           ATP                1.02
49       TTATAGTTTC           ATP                1.03
50       TGTCGAGGGG           ATP               0.981
51       AGAGAAAGGC           ATP                1.08
52       AAGGTTGTAA           ATP               0.985
53       TCCAACGTAT           ATP                1.49
54       GCCGAGCCGG           ATP               0.972
55       GTCACTTATT           ATP                1.04
56       TTGCGGGGTG           ATP                1.01
57       GGCATCGTCG           ATP                0.97
58       TATGAGGTCT           ATP                1.02
59       AAGTTCGCTG           ATP                1.01
60       TATACGGGGA           ATP                1.01
61       TTGTGGGGAC           ATP                   1
62       TTTTTTCTAC           ATP                1.31
63       TTTTTTGAGG           ATP               0.981
64       GGGGCGGCGG           ATP               0.962
65       CTGAGGAGGA           ATP                1.03
66       TGTTGAGTAT           ATP               0.974
67       TACCTAGAAC           ATP                1.07
68       GTTAGTCAAA           ATP               0.991
69       GGCTATTGCG           ATP               0.995
70       GTACCCTGGA           ATP                1.03
71       CAGAGTGGGA           ATP                1.03
72       CATTATTGTT           ATP               0.999
73       TGGGGATTAA           ATP               0.991
74       GTAAGGGGGA           ATP               0.984
75       TTCCGTTGAA           ATP                1.05
76        TTGAGGGGA           ATP               0.982
77       ATTTGAGGTT           ATP                1.01
78       TATCAGAGGT           ATP                1.03
79       TTTACGGAGG           ATP                1.03
80        AATGGTCAT           ATP               0.991
81       TGTTTTGGGT           ATP               0.985
82       TAGTTTTGGA           ATP               0.988
83       ATGTGAGTTA           ATP               0.951
84       GTTTTCAGTA           ATP               0.982
85       AATAAATTAA           ATP               0.977
